Measured values drawn from patent US20210198277A1 for this set.

IC50 overview
- Assayed System: EHMT2 (Homo sapiens, UniProt Q96KQ7)
- Construct: host or cells: MDA-MB-231
- Assay Procedure: MDA-MB-231 H3K9me2 in-cell Western assay (EHMT2 ICW)
- Assay type: cell-based
- Experimental Conditions: Table II; MDA-MB-231 H3K9me2 in-cell Western; read-out: EHMT2 ICW (IC50 μM)

Look over these answered cases.
Smiles String	Assayed System	IC50
COc1ccc(Nc2cc(N(C)CC3CCN(C(C)=O)CC3)ccn2)cc1OCCCN1CCCC1	EHMT2 (Homo sapiens, UniProt Q96KQ7)	> 10 µM
COc1ccc(Nc2ccc3cnn(C)c3c2)cc1OCCCN1CCCC1	EHMT2 (Homo sapiens, UniProt Q96KQ7)	> 10 µM
COc1ccc(Nc2nccc(NCC3CCOCC3)n2)cc1OCCCN1CCCC1	EHMT2 (Homo sapiens, UniProt Q96KQ7)	0.1 to 1 µM
COc1ccc(Nc2nccc(NCc3cnn(C)c3)n2)cc1OCCCN1CCCC1	EHMT2 (Homo sapiens, UniProt Q96KQ7)	0.1 to 1 µM
COc1ccc(Nc2nccc(NCC3CCN(CC(F)(F)F)CC3)n2)cc1OCCCN1CCCC1	EHMT2 (Homo sapiens, UniProt Q96KQ7)	0.1 to 1 µM

If you can, please state the reported IC50 value of COc1ccc(Nc2ncc(CO)cn2)cc1OCCCN1CCCC1 .
> 10 µM

Find the recorded IC50 belonging to COc1ccc(Nc2nccc(NCC3CCN(C)CC3)n2)cc1OCCCN1CCCC1 and report it.
0.1 to 1 µM

Fill in: IC50 of COc1ccc(Nc2nccc(-c3c(C)noc3C)n2)cc1OCCCN1CCCC1 is ___
> 10 µM

Given the compound COc1ccc(Nc2cc(CNC3CCNCC3)n(C)n2)cc1OCCCN1CCCC1 , what is its reported IC50?
> 10 µM

Fill in: IC50 of COc1ccc(Nc2nccc(N)n2)cc1OCCCN1CCCC1 is ___
1 to 10 µM

* * *

Each entry below lists one item and its recorded pIC50 value.
- Assayed System: EHMT1 (Homo sapiens, UniProt Q9H9B1)
- Sequence (Q9H9B1 whole entry, species assumed): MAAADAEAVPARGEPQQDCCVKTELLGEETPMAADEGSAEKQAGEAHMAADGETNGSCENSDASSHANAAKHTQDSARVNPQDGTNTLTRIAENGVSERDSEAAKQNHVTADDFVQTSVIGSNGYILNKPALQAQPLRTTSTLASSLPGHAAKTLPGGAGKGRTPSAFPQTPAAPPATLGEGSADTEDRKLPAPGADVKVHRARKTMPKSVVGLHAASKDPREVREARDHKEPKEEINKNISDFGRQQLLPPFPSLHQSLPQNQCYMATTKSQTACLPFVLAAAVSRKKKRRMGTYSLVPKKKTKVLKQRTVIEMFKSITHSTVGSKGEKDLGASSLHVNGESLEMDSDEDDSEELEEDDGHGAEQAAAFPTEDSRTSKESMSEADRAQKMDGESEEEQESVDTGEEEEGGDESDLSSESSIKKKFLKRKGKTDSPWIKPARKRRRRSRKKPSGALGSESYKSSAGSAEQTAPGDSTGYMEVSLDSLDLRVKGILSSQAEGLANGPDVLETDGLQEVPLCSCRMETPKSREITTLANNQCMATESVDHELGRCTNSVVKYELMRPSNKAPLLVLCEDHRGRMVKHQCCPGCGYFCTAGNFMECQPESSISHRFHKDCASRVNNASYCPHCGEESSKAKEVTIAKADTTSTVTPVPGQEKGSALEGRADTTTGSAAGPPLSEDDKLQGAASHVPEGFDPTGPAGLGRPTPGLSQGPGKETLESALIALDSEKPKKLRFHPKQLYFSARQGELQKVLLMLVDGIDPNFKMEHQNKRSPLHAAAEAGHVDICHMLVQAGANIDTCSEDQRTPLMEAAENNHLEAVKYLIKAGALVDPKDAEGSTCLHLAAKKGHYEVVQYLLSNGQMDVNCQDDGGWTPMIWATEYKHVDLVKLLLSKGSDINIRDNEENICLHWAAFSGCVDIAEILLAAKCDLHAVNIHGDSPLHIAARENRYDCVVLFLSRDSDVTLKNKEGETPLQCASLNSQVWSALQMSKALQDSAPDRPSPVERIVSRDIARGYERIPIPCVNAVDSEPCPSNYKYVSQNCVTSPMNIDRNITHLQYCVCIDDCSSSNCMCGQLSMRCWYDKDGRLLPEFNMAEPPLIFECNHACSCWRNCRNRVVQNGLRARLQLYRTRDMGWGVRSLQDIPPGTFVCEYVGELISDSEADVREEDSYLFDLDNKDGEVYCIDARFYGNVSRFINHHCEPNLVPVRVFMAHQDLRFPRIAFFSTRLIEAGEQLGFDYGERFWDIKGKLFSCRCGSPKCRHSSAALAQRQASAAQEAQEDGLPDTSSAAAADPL
- Assay Procedure: EHMT1 enzyme assay on peptide substrate (EHMT1 PEP)
- Type: biochemical
- Experimental Conditions: Table VII; read-out: EHMT1 PEP IC50
pIC50: −log10 of the molar value.

// known answers, use as guide
Molecule	pIC50
CNc1cc(C)nc(Nc2ccc(OC)c(OC[C@H](O)CN3CC(C)C3)c2)n1 [Compound 1100]	6.00 to 7.00
CNCCNCc1cc(Nc2nc(C)cc(NC)n2)ccc1OC [Compound 1080]	> 7.00
CNc1cc(C)nc(Nc2ccc(OC)c(COCCN(C)C)c2)n1 [Compound 1105]	6.00 to 7.00
CNc1ccnc(Nc2cnc(OC)c(OC[C@@H]3CCN(C4CCC4)C3)c2)n1 [Compound 1098]	> 7.00
CNc1cc(C)c2cc(OC)c(OC[C@H](C)CN3CCC3)cc2n1 [Compound 1088]	> 7.00
CNC[C@@H](COc1cc(Nc2nccc(NC)n2)ccc1OC)OC [Compound 1084]	< 5.00
CNc1ccnc(Nc2ccc(OC)c(CNC[C@H]3CCCN3)c2)n1 [Compound 1062]	5.00 to 6.00

Please examine the following record next.
Recorded pIC50 of CNc1ccnc(Nc2ccc(OC)c(OC[C@H]3CN(C)CCO3)c2)n1 [Compound 1067] , please.
< 5.00

* * *

- Assayed System: EHMT1 (Homo sapiens)
- Assay Procedure: EHMT1 enzyme assay on peptide substrate (EHMT1 PEP)
- Type: biochemical
- Experimental Conditions: Table II; read-out: EHMT1 PEP (IC50 μM)
Property Name: IC50

Smiles String	Assay Result
CC(=O)N1CCC(CNc2ccnc(Nc3ccc(Cl)c(OCCCN4CCCC4)c3)n2)CC1	0.1 to 1 µM
COc1ccc(Nc2nccc(N3CC(C(N)=O)C3)n2)cc1OCCCN1CCCC1	> 10 µM
COc1ccc(Nc2nccc(N3CCN(C)C(=O)C3)n2)cc1OCCCN1CCCC1	> 10 µM
COc1ccc(Nc2nccc(NC(C)C)n2)cc1OCCCN1CCCC1	0.1 to 1 µM
CNc1ccnc(Nc2cccc(OC[C@H](O)CN3CCCC3)c2)n1	1 to 10 µM
COc1ccc(Nc2ccnc(CNC3CCOCC3)n2)cc1OCCCN1CCCC1	1 to 10 µM
COc1ccc(Nc2nccc(CNC3CCNCC3)n2)cc1OCCCN1CCCC1	> 10 µM
COc1ccc(Nc2nccc(NCCNC(C)=O)n2)cc1OCCCN1CCCC1	0.1 to 1 µM

Any idea what IC50 was measured for COc1ccc(Nc2nccc(NCC3CCN(C)CC3)n2)cc1OCCCNc1ccccc1 ?
> 10 µM

Dear colleague, I am looking for the recorded IC50 of the following molecule: CNc1cc(Nc2cc(OCCCN3CCCC3)c(OC)cn2)ccn1
< 0.1 µM

Given the molecule CCCCNc1nccc(NCCCN(C)C)n1 , what is its reported IC50?
> 10 µM

* * *

- Assayed System: human EHMT2 913-1193 (Homo sapiens, UniProt Q96KQ7)
- Construct: recombinant purified human EHMT2 913-1193, Viva; purchased Viva
- Assay Procedure: EHMT2 enzyme assay on histone peptide substrate (EHMT2 PEP)
- Type: biochemical
- Experimental Conditions: Table II; read-out: EHMT2 PEP (IC50 μM)
- Description: Recombinant purified human EHMT2 913-1193 (55 μM) synthesized by Viva was used for all experiments. Biotinylated histone peptides were synthesized by Biopeptide and HPLC-purified to >95% purity. […] 384-well Flashplates and 96-well filter binding plates were read on a TopCount microplate reader (PerkinElmer). […]
Property Name: IC50

# count of solved cases: 5
Molecule	IC50
COc1ccc(Nc2nccc(CCN3CCN(C(C)=O)CC3)n2)cc1OCCCN1CCCC1	> 10 µM
CN1CCC(CNc2nccc(NCCNC(=O)c3ccc4c(c3)CC(=O)N4)n2)CC1 [Compound 101]	1 to 10 µM
CCCCNc1ncc(-c2ccccc2)c(N)n1	> 10 µM
COc1ccc(Nc2nc(NCC3CCNCC3)cc(N3CCCC3)n2)cc1OCCCN1CCCC1	0.1 to 1 µM
COc1ccc(Nc2nccc(N3CCN(C)C(=O)C3)n2)cc1OCCCN1CCCC1	> 10 µM

What value of measured IC50 is listed for O=C1Cc2cc(C(=O)NCCNc3ccnc(NCC4CCNCC4)n3)ccc2N1 ?
1 to 10 µM

* * *

Recorded IC50 values for a group of compounds are listed next.
- Assayed System: human EHMT2 913-1193 (Homo sapiens)
- Construct: recombinant purified human EHMT2 913-1193, Viva; purchased Viva
- Assay Procedure: EHMT2 enzyme assay on histone peptide substrate (EHMT2 PEP)
- Type: biochemical
- Experimental Conditions: Table II; read-out: EHMT2 PEP (IC50 μM)
- Protocol: Recombinant purified human EHMT2 913-1193 (55 μM) synthesized by Viva was used for all experiments. Biotinylated histone peptides were synthesized by Biopeptide and HPLC-purified to >95% purity. […] 384-well Flashplates and 96-well filter binding plates were read on a TopCount microplate reader (PerkinElmer). […]

# count of solved cases: 3
Smiles String	Assayed System	IC50
c1cc(Nc2nccc(NCC3CCNCC3)n2)cc(OCCCN2CCCC2)c1	human EHMT2 913-1193 (Homo sapiens)	0.1 to 1 µM
COc1ccc(Nc2nccc(NC(C)(C)C)n2)cc1OCCCN1CCCC1	human EHMT2 913-1193 (Homo sapiens)	< 0.1 µM
CNc1cc(C)nc(Nc2ccc(OC)c(OCCCN3CC[C@@H](F)C3)c2)n1	human EHMT2 913-1193 (Homo sapiens)	0.1 to 1 µM

Alright, here's another compound for you.
Quick check: IC50 of CCCCNc1ccnc(NCCCC)n1 ?
> 10 µM

* * *

- Assayed System: EHMT2 (Homo sapiens)
- Construct: host or cells: MDA-MB-231
- Sequence (Q96KQ7 1-1210): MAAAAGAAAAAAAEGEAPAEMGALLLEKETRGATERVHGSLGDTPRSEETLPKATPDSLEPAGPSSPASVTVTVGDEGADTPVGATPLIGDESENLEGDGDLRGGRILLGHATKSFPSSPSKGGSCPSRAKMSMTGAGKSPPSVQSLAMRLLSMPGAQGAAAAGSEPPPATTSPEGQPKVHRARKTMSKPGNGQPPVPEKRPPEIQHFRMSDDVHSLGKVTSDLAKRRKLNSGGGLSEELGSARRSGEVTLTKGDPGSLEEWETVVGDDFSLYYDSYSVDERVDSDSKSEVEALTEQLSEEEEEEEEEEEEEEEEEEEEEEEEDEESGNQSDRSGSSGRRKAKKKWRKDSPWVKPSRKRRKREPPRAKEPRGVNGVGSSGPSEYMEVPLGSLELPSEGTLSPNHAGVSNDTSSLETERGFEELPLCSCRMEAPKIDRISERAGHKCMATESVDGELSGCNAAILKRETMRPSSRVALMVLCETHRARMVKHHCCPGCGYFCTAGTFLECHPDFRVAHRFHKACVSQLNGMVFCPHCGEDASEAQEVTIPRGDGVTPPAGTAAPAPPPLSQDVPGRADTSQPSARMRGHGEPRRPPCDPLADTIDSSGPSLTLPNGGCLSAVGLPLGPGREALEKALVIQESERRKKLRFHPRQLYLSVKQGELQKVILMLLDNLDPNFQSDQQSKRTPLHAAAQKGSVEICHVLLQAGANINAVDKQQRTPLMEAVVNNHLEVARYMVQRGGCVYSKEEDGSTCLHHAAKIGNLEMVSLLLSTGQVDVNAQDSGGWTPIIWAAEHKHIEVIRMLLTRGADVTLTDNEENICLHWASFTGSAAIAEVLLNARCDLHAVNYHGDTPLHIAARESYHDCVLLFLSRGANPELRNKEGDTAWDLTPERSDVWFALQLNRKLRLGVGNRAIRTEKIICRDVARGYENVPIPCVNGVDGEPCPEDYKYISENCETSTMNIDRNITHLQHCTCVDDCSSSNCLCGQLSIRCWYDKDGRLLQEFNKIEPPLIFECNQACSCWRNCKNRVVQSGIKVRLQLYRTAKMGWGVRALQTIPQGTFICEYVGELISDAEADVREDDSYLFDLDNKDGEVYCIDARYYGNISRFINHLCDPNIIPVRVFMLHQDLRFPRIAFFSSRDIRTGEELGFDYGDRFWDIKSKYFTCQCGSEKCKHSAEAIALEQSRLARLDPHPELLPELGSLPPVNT
- Assay Procedure: MDA-MB-231 H3K9me2 in-cell Western assay (EHMT2 ICW)
- Format: cell-based
- Experimental Conditions: Table VII; read-out: EHMT2 ICW IC50
Property Name: IC50

Look up IC50: CNc1cc(C)nc(Nc2ccc(OC)c(OC[C@H](O)CN(C)C)c2)n1
1000 to 10000 nM

Please report the recorded IC50 for CNc1ccnc(Nc2ccc(OC)c(OC[C@@H](CN3CCCC3)OC)c2)n1 .
100 to 1000 nM

Find the recorded IC50 belonging to CNc1ccnc(Nc2ccc(OC)c(OC[C@@H]3CN(C)CCO3)c2)n1 and report it.
> 10000 nM

Return reported IC50; argument: CNC[C@@H](O)COc1cc(Nc2nccc(NC)n2)ccc1OC
1000 to 10000 nM

Look up IC50: CNc1ccnc(Nc2ccc(OC)c(CNCCN3CCC3)c2)n1
100 to 1000 nM
